Numbers sourced from patent US20230233569A1.

Target: NRAS G12C (Homo sapiens, UniProt P01111+P62937, G12C)
Sequence (P01111 whole entry G12C): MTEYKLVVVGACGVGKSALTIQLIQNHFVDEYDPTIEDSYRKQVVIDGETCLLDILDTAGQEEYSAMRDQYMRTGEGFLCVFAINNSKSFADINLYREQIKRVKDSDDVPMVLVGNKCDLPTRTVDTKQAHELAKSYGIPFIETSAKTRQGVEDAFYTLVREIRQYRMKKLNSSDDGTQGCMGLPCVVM
Sequence (P62937 whole entry): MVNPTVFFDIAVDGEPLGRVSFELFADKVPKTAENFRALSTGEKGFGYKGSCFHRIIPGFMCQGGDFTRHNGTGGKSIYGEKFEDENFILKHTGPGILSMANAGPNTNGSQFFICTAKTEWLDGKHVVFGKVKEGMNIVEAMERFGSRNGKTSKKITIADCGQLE
Assay: Ras-Raf disruption / FRET / MOA assay (BRAF RBD)
Format: biochemical
Conditions: NRAS G12C; read-out: NRAS G12C FRET data IC50
MEASURED_QUANTITY: IC50

1) CCn1c(-c2cccnc2[C@H](C)OC)c2c3cc(ccc31)-c1cccc(c1)C[C@H](NC(=O)[C@H](C(C)C)N(C)C(=O)[C@H]1CC[C@H](N=C=NC(C)(C)C)C1)C(=O)N1CCC[C@H](N1)C(=O)OCC(C)(C)C2 | 10 to 100 nM
2) CCn1c(-c2cccnc2[C@H](C)OC)c2c3cc(ccc31)-c1cc(O)cc(c1)C[C@H](NC(=O)[C@H](C(C)C)N(C)C(=O)[C@H]1C[C@@H]3N[C@@H]3C1)C(=O)N1CCC[C@H](N1)C(=O)OCC(C)(C)C2 (atropisomer, axis not shown) | 100 to 1000 nM
3) CCn1c(-c2cccnc2[C@H](C)OC)c2c3cc(ccc31)-c1csc(n1)C[C@H](NC(=O)[C@H](C(C)C)N(C)C(=O)N1CC[C@@H](N(C)C(=O)[C@H]3CN3)C1)C(=O)N1CCC[C@H](N1)C(=O)OCC(C)(C)C2 (atropisomer, axis not shown) | 100 to 1000 nM
4) CCn1c(-c2cccnc2[C@H](C)OC)c2c3cc(ccc31)-c1cc(O)cc(c1)C[C@H](NC(=O)[C@H](C(C)C)N(C)C(=O)[C@@H]1CCN(C(=O)[C@H]3CN3)[C@@H]1C)C(=O)N1CCC[C@H](N1)C(=O)OCC(C)(C)C2 (atropisomer, axis not shown) | 10 to 100 nM
5) CCn1c(-c2cccnc2[C@H](C)OC)c2c3cc(ccc31)-c1cccc(c1)C[C@H](NC(=O)[C@H](C(C)C)N(C)C(=O)[C@H]1C[C@H](N=C=Nc3c(C)cccc3C)C1)C(=O)N1CCC[C@H](N1)C(=O)OCC(C)(C)C2 | 100 to 1000 nM
6) CCn1c(-c2cccnc2[C@H](C)OC)c2c3cc(ccc31)-c1cc(O)cc(c1)C[C@H](NC(=O)[C@H](C(C)C)N(C)C(=O)c1ccc(NC(=O)[C@H]3CN3)cn1)C(=O)N1CCC[C@H](N1)C(=O)OCC(C)(C)C2 | 100 to 1000 nM
7) CCn1c(-c2cccnc2[C@H](C)OC)c2c3cc(ccc31)-c1csc(n1)C[C@H](NC(=O)[C@H](C(C)C)N(C)C(=O)N(C)[C@H]1CCCN(C(=O)[C@H]3CN3)C1)C(=O)N1CCC[C@H](N1)C(=O)OCC(C)(C)C2 (atropisomer, axis not shown) | 100 to 1000 nM
8) CCn1c(-c2cccnc2[C@H](C)OC)c2c3cc(ccc31)-c1cc(cc(C(F)F)c1)C[C@H](NC(=O)[C@H](C1CCCC1)N1CC[C@]3(CCN(C(=O)[C@@H]4N[C@@H]4C4CC4)C3)C1)C(=O)N1CCC[C@H](N1)C(=O)OCC(C)(C)C2 | 1000 to 10000 nM
9) CCn1c(-c2cccnc2[C@H](C)OC)c2c3cc(ccc31)-c1cc(O)cc(c1)C[C@H](NC(=O)[C@H](C(C)C)N(C)C(=O)[C@@H]1CCN(C(=O)[C@@H]3CN3)C1)C(=O)N1CCC[C@H](N1)C(=O)OCC(C)(C)C2 | 10 to 100 nM
